Target: cloned human H3 receptors, stably expressed in SK-N-MC cells (Homo sapiens, UniProt Q9Y5N1)
Construct: expressed in transfected cells; host or cells: SK-N-MC cells
Sequence (Q9Y5N1 whole entry): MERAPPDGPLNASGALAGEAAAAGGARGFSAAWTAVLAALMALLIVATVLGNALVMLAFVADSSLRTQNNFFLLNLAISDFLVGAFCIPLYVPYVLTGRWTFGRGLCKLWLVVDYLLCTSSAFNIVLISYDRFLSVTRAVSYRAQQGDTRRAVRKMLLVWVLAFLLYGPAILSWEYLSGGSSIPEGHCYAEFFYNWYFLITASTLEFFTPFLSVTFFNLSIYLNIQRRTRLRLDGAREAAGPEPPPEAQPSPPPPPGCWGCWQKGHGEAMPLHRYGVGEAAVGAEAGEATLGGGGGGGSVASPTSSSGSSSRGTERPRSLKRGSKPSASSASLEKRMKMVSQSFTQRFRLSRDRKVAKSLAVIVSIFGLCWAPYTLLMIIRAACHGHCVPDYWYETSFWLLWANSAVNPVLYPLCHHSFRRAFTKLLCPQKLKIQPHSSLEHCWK
Assay: H3 Receptor Binding (Human)
Conditions: average of the results obtained
pKi: −log10 of the molar value.
Recorded pKi split into classes A: < 7; B: ≥ 7 and < 8; C: ≥ 8

- smiles-string: "CC(C)N1CCCN(Cc2c[nH]c3cc(C(=O)N4CCC(c5ccccc5)CC4)ccc23)CC1"
  label: "B"
- smiles-string: "O=C(c1ccc2c(CN3CCN(C4CCCC4)CC3)c[nH]c2c1)N1CCSCC1"
  label: "B"
- smiles-string: "O=C(c1ccc2c(CN3CCOCC3)c[nH]c2c1)N1CCCN(C2CC2)CC1"
  label: "C"
- smiles-string: "CC(C)N1CCN(C(=O)c2ccc3c(CN4CCN(c5ccncc5)CC4)c[nH]c3c2)CC1"
  label: "C"
- smiles-string: "O=C(c1ccc2c(CN3CCN(C4CCCC4)CC3)c[nH]c2c1)N1CCC(CO)CC1"
  label: "B"
- smiles-string: "O=C(c1ccc2c(CN3CCOCC3)c[nH]c2c1)N1CCN(C2CCC2)CC1"
  label: "C"
- smiles-string: "O=C(c1ccc2c(CN3CCN(C4CCCC4)CC3)c[nH]c2c1)N1CCC(c2ccccc2)CC1"
  label: "B"
- smiles-string: "O=C(c1ccc2c(CN3CCCN(C4CCC4)CC3)c[nH]c2c1)N1CCC(c2ccccc2)CC1"
  label: "B"
- smiles-string: "CC(C)N1CCN(C(=O)c2ccc3c(CN4CCOCC4)c[nH]c3c2)CC1"
  label: "C"
- smiles-string: "CN(C)C1CCN(Cc2c[nH]c3cc(C(=O)N4CCC(Cc5ccccc5)CC4)ccc23)CC1"
  label: "A"
- smiles-string: "Cn1cc(CN2CCOCC2)c2ccc(C(=O)N3CCN(C4CCC4)CC3)cc21"
  label: "C"
- smiles-string: "O=C(c1cccc2[nH]cc(CN3CCN(C4CCC4)CC3)c12)N1CCCCC1"
  label: "A"
- smiles-string: "O=C(c1ccc2c(CN3CCN(C4CC4)CC3)c[nH]c2c1)N1CCCCC1"
  label: "A"

###

Target: cloned human H3 receptors, stably expressed in SK-N-MC cells (Homo sapiens, UniProt Q9Y5N1)
Construct: expressed in transfected cells; host or cells: SK-N-MC cells
Test: H3 Receptor Binding (Human)
Conditions: average of the results obtained
property: Ki (nM)

- compound: "O=C(c1ccc2c(CN3CCN(C4CCC4)CC3)c[nH]c2c1)N1CCOCC1"
  property: "Ki"
  reported-result: 43
- compound: "O=C(c1ccc2[nH]cc(CN3CCOCC3)c2c1)N1CCN(C2CCC2)CC1"
  property: "Ki"
  reported-result: 33
- compound: "O=C(c1ccc2scc(CN3CCCCC3)c2c1)N1CCN(C2CCC2)CC1"
  property: "Ki"
  reported-result: 7
- compound: "O=C(c1ccc2c(CN3CCN(C4CCC4)CC3)c[nH]c2c1)N1CCC(Cc2ccccc2)CC1"
  property: "Ki"
  reported-result: 12
- compound: "CC(C)N1CCN(C(=O)c2ccc3c(CN4CCN(C(=O)c5ccncc5)CC4)c[nH]c3c2)CC1"
  property: "Ki"
  reported-result: 7
- compound: "CN(C)C1CCN(Cc2c[nH]c3cc(C(=O)N4CCCCCC4)ccc23)C1 (stereo not shown)"
  property: "Ki"
  reported-result: 15
- compound: "CC(=O)N1CCN(Cc2c[nH]c3cc(C(=O)N4CCN(C(C)C)CC4)ccc23)CC1"
  property: "Ki"
  reported-result: 5
- compound: "CC(C)N1CCN(C(=O)c2ccc3c(CN4CCC(Cc5ccccc5)CC4)c[nH]c3c2)CC1"
  property: "Ki"
  reported-result: 1
- compound: "CC(C)N1CCCN(Cc2c[nH]c3cc(C(=O)N4CCC(CO)CC4)ccc23)CC1"
  property: "Ki"
  reported-result: 87
- compound: "CC(C)N1CCN(C(=O)c2ccc3[nH]cc(CN4CCOCC4)c3c2)CC1"
  property: "Ki"
  reported-result: 265
- compound: "O=C(c1ccc2c(CN3CCCN(C4CCC4)CC3)c[nH]c2c1)N1CCSCC1"
  property: "Ki"
  reported-result: 22
- compound: "O=C(c1cccc2c(CN3CCCCC3)c[nH]c12)N1CCN(C2CCC2)CC1"
  property: "Ki"
  reported-result: 2
- compound: "O=C(c1ccc2c(CN3CCOCC3)c[nH]c2c1)N1CCCN(C2CCC2)CC1"
  property: "Ki"
  reported-result: 1
- compound: "O=C(c1ccc2c(CN3CCOCC3)c[nH]c2c1)N1CCC(N2CCCC2=O)CC1"
  property: "Ki"
  reported-result: 609
- compound: "O=C(c1ccc2c(CN3CCN(C4CCCC4)CC3)c[nH]c2c1)N1CCC(Cc2ccccc2)CC1"
  property: "Ki"
  reported-result: 28
- compound: "CN(C)C1CCN(Cc2c[nH]c3cc(C(=O)N4CCC(CO)CC4)ccc23)CC1"
  property: "Ki"
  reported-result: 439
- compound: "O=C(c1cccc2[nH]cc(CN3CCOCC3)c12)N1CCN(C2CCC2)CC1"
  property: "Ki"
  reported-result: 5000
- compound: "O=C(c1ccc2scc(C(=O)N3CCCCC3)c2c1)N1CCN(C2CCC2)CC1"
  property: "Ki"
  reported-result: 215
- compound: "CC(C)N1CCCN(Cc2c[nH]c3cc(C(=O)N4CCCCCC4)ccc23)CC1"
  property: "Ki"
  reported-result: 42
- compound: "O=C(c1ccc2c(CN3CCN(C4CCC4)CC3)c[nH]c2c1)N1CCSCC1"
  property: "Ki"
  reported-result: 27
- compound: "O=C(c1ccc2c(CN3CCC(N4CCCCC4)CC3)c[nH]c2c1)N1CCSCC1"
  property: "Ki"
  reported-result: 171
- compound: "CN(C)C1CCN(Cc2c[nH]c3cc(C(=O)N4CCSCC4)ccc23)C1 (stereo not shown)"
  property: "Ki"
  reported-result: 19
- compound: "O=C(NCc1ccncc1)c1ccc2c(CN3CCCCC3)c[nH]c2c1"
  property: "Ki"
  reported-result: 327
- compound: "O=C(c1ccc2c(CN3CCCCC3)c[nH]c2c1)N1CCc2nc[nH]c2C1"
  property: "Ki"
  reported-result: 5010
- compound: "O=C(c1ccc2c(CN3CCN(C4CCCC4)CC3)c[nH]c2c1)N1CCOCC1"
  property: "Ki"
  reported-result: 53
- compound: "O=C(c1ccc2c(CN3CCOCC3)c[nH]c2c1)N1CCN(C2CC2)CC1"
  property: "Ki"
  reported-result: 1
- compound: "CC(C)N1CCN(C(=O)c2ccc3c(CN4CCCCC4)c[nH]c3c2)CC1"
  property: "Ki"
  reported-result: 2
- compound: "CC(C)N1CCN(C(=O)c2ccc3c(CN4CCC(c5ccccc5)CC4)c[nH]c3c2)CC1"
  property: "Ki"
  reported-result: 1
- compound: "O=C(NCc1ccncc1)c1ccc2c(CN3CCOCC3)c[nH]c2c1"
  property: "Ki"
  reported-result: 228
- compound: "CC(C)N1CCN(C(=O)c2ccc3c(CN4CCN(c5nccs5)CC4)c[nH]c3c2)CC1"
  property: "Ki"
  reported-result: 7
- compound: "CC(C)N1CCN(C(=O)c2ccc3c(CN4CCOCC4)cn(S(C)(=O)=O)c3c2)CC1"
  property: "Ki"
  reported-result: 18
- compound: "O=C(c1ccc2c(CN3CCCN(C4CC4)CC3)c[nH]c2c1)N1CCCCC1"
  property: "Ki"
  reported-result: 214
- compound: "CN(C)C1CCN(Cc2c[nH]c3cc(C(=O)N4CCC(Cc5ccccc5)CC4)ccc23)C1 (stereo not shown)"
  property: "Ki"
  reported-result: 9
- compound: "CC(C)N1CCN(C(=O)c2ccc3c(CN4CCN(C(c5ccccc5)c5ccccc5)CC4)c[nH]c3c2)CC1"
  property: "Ki"
  reported-result: 19
